Experiment: Ratio of kinetic constants for hydrolysis by beta-lactamase from Enterobacter cloacae P99 (kcat/Km)
Set-up: unit not given here
measure.name: Ratio
Provide a numeric answer; units are not to be included.

Incoming: Write down Ratio measured for item `O=C(Cc1ccccc1)N[C@@H]1C(=O)N2C(C(=O)O)=C(COC(=O)Nc3ccc(N(CCCl)CCCl)cc3)CS[C@H]12`
Outgoing: 17

Incoming: Indicate its recorded Ratio; the compound in question is `CO[C@@]12[C@H](COC(N)=O)C3=C(C(=O)C(C)=C(NCC4=C(C(=O)O)N5C(=O)[C@@H](NC(=O)CCCC(=O)O)[C@H]5SC4)C3=O)N1C[C@@H]1N[C@@H]12`
Outgoing: 2.1

Incoming: Tell me Ratio reported for `O=C(O)CCCC(=O)N[C@@H]1C(=O)N2C(C(=O)O)=C(COC(=O)Nc3ccc(N(CCCl)CCCl)cc3)CS[C@H]12`
Outgoing: 7.8

Incoming: Give recorded Ratio. `CO[C@@]12[C@H](COC(N)=O)C3=C(C(=O)C(C)=C(NCC4=C(C(=O)O)N5C(=O)[C@@H](NC(=O)Cc6ccccc6)[C@H]5SC4)C3=O)N1C[C@@H]1N[C@@H]12`
Outgoing: 9.7

Incoming: Give a short answer stating reported Ratio for COc1cccc2c1C(=O)c1c(O)c3c(c(O)c1C2=O)C[C@@](O)(C(=O)CO)C[C@@H]3OC1CC(NC(=O)OCC2=C(C(=O)O)N3C(=O)[C@@H](NC(=O)CCCC(=O)O)[C@H]3SC2)C(O)C(C)O1 (stereo not given in full) .
Outgoing: 2.5
